Tested on: MDA-MB-231
method.description: MTS cell proliferation assay, MDA-MB-231
Assay type: cell-based, human
setup.conditions: Homo sapiens, MDA-MB-231, 72 h, read-out: IC50 MDA-MB-231 (Table 5)
property.measured: IC50 (nM)

• O=C(Nc1ccc2c(c1)S(=O)(=O)C=C2)c1cc(-c2ccccc2)nc2ccccc12 = 290

* * *

Test system: Panc-1
method.description: MTS cell proliferation assay, Panc-1
Assay type: cell-based, human
setup.conditions: Homo sapiens, PANC-1, 72 h, read-out: IC50 Panc-1 (Table 5)
pIC50: −log10 of the molar value.
property.measured: pIC50

• O=C(Nc1ccc2c(c1)S(=O)(=O)C=C2)c1cc(-c2ccccc2)nc2ccccc12 = 6.59

* * *

Test system: MCF-7
method.description: MTS cell proliferation assay, MCF-7
Assay type: cell-based, human
setup.conditions: Homo sapiens, MCF7, 72 h, read-out: IC50 MCF-7 (Table 1)
pIC50: −log10 of the molar value.
Parameter threshold = 5. Response is 1.0 when pIC50 meets or exceeds it, else 0.0.

* N#C/C(=C\c1ccc(O)c(O)c1)C(=O)Nc1ccc2c(c1)S(=O)(=O)C=C2 | 1.0
* O=C(Nc1ccc2c(c1)S(=O)(=O)C=C2)c1cc(-c2ccccc2)nc2ccccc12 | 1.0
* O=C(Nc1ccc2c(c1)S(=O)(=O)C=C2)c1cccnc1 | 0.0
* O=C(Nc1ccc([N+](=O)[O-])cc1Cl)c1cc(Cl)ccc1OCCBr | 0.0
* O=C(Nc1ccc([N+](=O)[O-])cc1Cl)c1cc(-c2ccccc2)nc2ccccc12 | 0.0
* N#CCC(=O)Nc1ccc2c(c1)S(=O)(=O)C=C2 | 0.0
* CN(C)CCOc1ccc(Cl)cc1C(=O)Nc1ccc([N+](=O)[O-])cc1Cl | 0.0
* O=C(Nc1ccc2c(c1)S(=O)(=O)C=C2)c1cc(Cl)ccc1OCCF | 1.0

* * *

Test system: Panc-1
method.description: MTS cell proliferation assay, Panc-1
Assay type: cell-based, human
setup.conditions: Homo sapiens, PANC-1, 72 h, read-out: IC50 Panc-1 (Table 4)
Reported IC50 values for a set of compounds
property.measured: IC50 (nM)

- O=C(Nc1ccc2c(c1)S(=O)(=O)C=C2)c1cc(-c2ccccc2)nc2ccccc12: 260
- O=C(Nc1ccc([N+](=O)[O-])cc1Cl)c1cc(Cl)ccc1O [niclosamide, reference compound]: 1730

* * *

property.measured: melting point

- O=C(Nc1ccc2c(c1)S(=O)(=O)C=C2)c1c2ccccc2nc2ccccc12: 237 to 238 °C
- C[C@H](NC(=O)c1cc(Cl)ccc1O)c1ccccc1 [Compound 9]: 124 to 125 °C
- Cc1cc(C)c(/C=C(\C#N)C(=O)Nc2ccc3c(c2)S(=O)(=O)C=C3)c(C)c1 [RMF-1-14]: 255 to 256 °C
- COc1ccc(/C=C(\C#N)C(=O)Nc2ccc3c(c2)S(=O)(=O)C=C3)cc1 [RMF-1-13]: 275 to 276 °C
- N#C/C(=C\c1cccc(Br)c1)C(=O)Nc1ccc2c(c1)S(=O)(=O)C=C2 [RMF-1-32]: 250 to 251 °C
- N#C/C(=C\c1cccnc1Cl)C(=O)Nc1ccc2c(c1)S(=O)(=O)C=C2 [RMF-1-25]: 251 to 252 °C
- N#C/C(=C\c1cccc([N+](=O)[O-])c1)C(=O)Nc1ccc2c(c1)S(=O)(=O)C=C2 [RMF-1-15]: 269 to 270 °C
- N#C/C(=C\c1cccc(F)c1)C(=O)Nc1ccc2c(c1)S(=O)(=O)C=C2 [RMF-1-31]: 245 to 246 °C
- O=C(Nc1ccc2c(c1)S(=O)(=O)C=C2)c1ccnc(-c2ccccc2)c1 [Compound 22]: 285 to 286 °C
- N#C/C(=C\c1c(F)cccc1F)C(=O)Nc1ccc2c(c1)S(=O)(=O)C=C2 [HJC-5-91]: 253 to 254 °C
- N#C/C(=C\c1ccccc1Cl)C(=O)Nc1ccc2c(c1)S(=O)(=O)C=C2 [RMF-1-33]: 242 to 243 °C
- COc1cc(/C=C(\C#N)C(=O)Nc2ccc3c(c2)S(=O)(=O)C=C3)cc(OC)c1OC [RMF-1-38]: 224 to 225 °C
- Cc1cccc(/C=C(\C#N)C(=O)Nc2ccc3c(c2)S(=O)(=O)C=C3)n1 [HJC-5-88]: 221 to 222 °C
- COc1ncccc1/C=C(\C#N)C(=O)Nc1ccc2c(c1)S(=O)(=O)C=C2 [RMF-1-27]: 261 to 262 °C
- N#C/C(=C\c1cccnc1Br)C(=O)Nc1ccc2c(c1)S(=O)(=O)C=C2 [RMF-1-26]: 242 to 243 °C
- N#C/C(=C\c1ccc(Br)cc1)C(=O)Nc1ccc2c(c1)S(=O)(=O)C=C2 [RMF-1-8]: 289 to 290 °C
- N#C/C(=C\c1cccc(O)c1)C(=O)Nc1ccc2c(c1)S(=O)(=O)C=C2 [RMF-1-10]: 262 to 263 °C
- COc1ccc(/C=C(\C#N)C(=O)Nc2ccc3c(c2)S(=O)(=O)C=C3)cn1 [RMF-1-28]: 255 to 256 °C
- N#C/C(=C\c1ccncc1)C(=O)Nc1ccc2c(c1)S(=O)(=O)C=C2 [RMF-1-23]: 288 to 289 °C
- N#C/C(=C\c1ccc([N+](=O)[O-])cc1)C(=O)Nc1ccc2c(c1)S(=O)(=O)C=C2 [RMF-1-37]: 272 to 273 °C
- N#C/C(=C\c1cccnc1F)C(=O)Nc1ccc2c(c1)S(=O)(=O)C=C2 [RMF-1-24]: 262 to 263 °C
- N#C/C(=C\c1c[nH]c2ncccc12)C(=O)Nc1ccc2c(c1)S(=O)(=O)C=C2 [RMF-1-17]: 300 to 301 °C
- N#C/C(=C\c1ccccc1[N+](=O)[O-])C(=O)Nc1ccc2c(c1)S(=O)(=O)C=C2 [RMF-1-36]: 254 to 255 °C
